Target: c-kit (Homo sapiens)
Construct: MO7e (human megakaryocytic leukemia cell line) which had been arrested for 20 hr; endogenous in cells; host or cells: MO7e human megakaryocytic leukemia cell line
Sequence (P10721 26-976): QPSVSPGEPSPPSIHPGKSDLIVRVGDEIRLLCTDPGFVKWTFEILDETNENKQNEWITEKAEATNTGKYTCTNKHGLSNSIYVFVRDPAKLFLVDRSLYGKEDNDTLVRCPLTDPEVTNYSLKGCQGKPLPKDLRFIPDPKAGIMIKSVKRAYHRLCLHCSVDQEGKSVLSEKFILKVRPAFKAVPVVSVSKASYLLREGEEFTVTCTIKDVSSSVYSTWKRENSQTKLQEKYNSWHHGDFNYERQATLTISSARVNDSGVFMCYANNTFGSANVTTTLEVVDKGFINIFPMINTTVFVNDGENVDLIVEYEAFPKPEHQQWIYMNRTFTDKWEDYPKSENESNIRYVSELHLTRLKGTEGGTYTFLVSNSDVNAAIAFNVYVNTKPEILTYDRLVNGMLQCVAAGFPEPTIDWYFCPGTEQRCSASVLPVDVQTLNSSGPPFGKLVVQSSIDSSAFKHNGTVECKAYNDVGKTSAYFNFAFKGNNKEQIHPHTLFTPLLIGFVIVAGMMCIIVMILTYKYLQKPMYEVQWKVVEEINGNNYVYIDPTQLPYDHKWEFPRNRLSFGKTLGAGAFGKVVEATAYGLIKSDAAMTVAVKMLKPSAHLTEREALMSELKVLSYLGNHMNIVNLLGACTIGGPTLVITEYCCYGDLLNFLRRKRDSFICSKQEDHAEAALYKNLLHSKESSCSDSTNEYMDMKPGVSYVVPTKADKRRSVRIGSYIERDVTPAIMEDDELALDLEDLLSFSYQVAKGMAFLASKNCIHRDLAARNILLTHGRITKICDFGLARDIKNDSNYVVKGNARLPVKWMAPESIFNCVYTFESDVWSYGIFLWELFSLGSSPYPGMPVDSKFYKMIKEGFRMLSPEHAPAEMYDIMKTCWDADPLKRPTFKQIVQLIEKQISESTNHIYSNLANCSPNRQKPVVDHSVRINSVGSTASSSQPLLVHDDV
Assay: Inhibitory activity against c-kit autophosphorylation (MO7e cells, h-SCF)
Assay type: cell-based
Settings: MO7e cells, h-SCF stimulation; read-out: c-kit IC50
pIC50: −log10 of the molar value.
observationType: pIC50

Record excerpt, results attached:
[[record]]
smilesinput = "COc1cc2ncnc(Oc3ccc(SCCCCOc4ccccc4F)cc3)c2cc1OC"
observationtype = "pIC50"
valueobserved = 6.03

[[record]]
smilesinput = "COc1cc2nccc(Oc3ccc(NC(=S)NC(=O)c4cccc(C)c4)cc3Cl)c2cc1OC"
observationtype = "pIC50"
valueobserved = 6.43

[[record]]
smilesinput = "COc1cc2ncnc(Oc3ccc(NC(=S)NC(=O)c4ccccc4Cl)cc3Cl)c2cc1OC"
observationtype = "pIC50"
valueobserved = 6.35

[[record]]
smilesinput = "COc1cc2nccc(Oc3ccc(NC(=S)NC(=O)c4ccccc4Br)c(F)c3)c2cc1OC"
observationtype = "pIC50"
valueobserved = 6.24

[[record]]
smilesinput = "COc1cc2nccc(Oc3ccc(NC(=S)NC(=O)c4cccc(C(F)(F)F)c4)cc3F)c2cc1OC"
observationtype = "pIC50"
valueobserved = 6.88

[[record]]
smilesinput = "COc1cc2nccc(Oc3ccc(NCCOc4cc(Cl)ccc4Cl)cc3)c2cc1OC"
observationtype = "pIC50"
valueobserved = 6.92

[[record]]
smilesinput = "COc1cc2nccc(Oc3ccc(NCCOc4c(F)cccc4F)cc3)c2cc1OC"
observationtype = "pIC50"
valueobserved = 6.71

[[record]]
smilesinput = "COc1cc2nccc(Oc3ccc(NC(=S)NC(=O)c4ccc(C)s4)cc3F)c2cc1OC"
observationtype = "pIC50"
valueobserved = 6.38


1. COc1cc2nccc(Oc3ccc(NC(=S)NC(=O)c4cccc(Cl)c4)cc3Cl)c2cc1OC
2. COc1cc2nccc(Oc3ccc(NC(=S)NC(=O)N(C(C)C)C(C)C)cc3Cl)c2cc1OC
Ask: # compare pIC50 for 1 vs 2 ; return the one with the smaller value Provide the label of your selected option as the answer.
Reply: 2
(2: 6.24, 1: 6.60)

###

Here, each record is paired with measured IC50 data.
Target: PDGF-Ra (Homo sapiens, UniProt P16234)
Construct: host or cells: G-292 human osteosarcoma cells
Sequence (P16234 24-1089): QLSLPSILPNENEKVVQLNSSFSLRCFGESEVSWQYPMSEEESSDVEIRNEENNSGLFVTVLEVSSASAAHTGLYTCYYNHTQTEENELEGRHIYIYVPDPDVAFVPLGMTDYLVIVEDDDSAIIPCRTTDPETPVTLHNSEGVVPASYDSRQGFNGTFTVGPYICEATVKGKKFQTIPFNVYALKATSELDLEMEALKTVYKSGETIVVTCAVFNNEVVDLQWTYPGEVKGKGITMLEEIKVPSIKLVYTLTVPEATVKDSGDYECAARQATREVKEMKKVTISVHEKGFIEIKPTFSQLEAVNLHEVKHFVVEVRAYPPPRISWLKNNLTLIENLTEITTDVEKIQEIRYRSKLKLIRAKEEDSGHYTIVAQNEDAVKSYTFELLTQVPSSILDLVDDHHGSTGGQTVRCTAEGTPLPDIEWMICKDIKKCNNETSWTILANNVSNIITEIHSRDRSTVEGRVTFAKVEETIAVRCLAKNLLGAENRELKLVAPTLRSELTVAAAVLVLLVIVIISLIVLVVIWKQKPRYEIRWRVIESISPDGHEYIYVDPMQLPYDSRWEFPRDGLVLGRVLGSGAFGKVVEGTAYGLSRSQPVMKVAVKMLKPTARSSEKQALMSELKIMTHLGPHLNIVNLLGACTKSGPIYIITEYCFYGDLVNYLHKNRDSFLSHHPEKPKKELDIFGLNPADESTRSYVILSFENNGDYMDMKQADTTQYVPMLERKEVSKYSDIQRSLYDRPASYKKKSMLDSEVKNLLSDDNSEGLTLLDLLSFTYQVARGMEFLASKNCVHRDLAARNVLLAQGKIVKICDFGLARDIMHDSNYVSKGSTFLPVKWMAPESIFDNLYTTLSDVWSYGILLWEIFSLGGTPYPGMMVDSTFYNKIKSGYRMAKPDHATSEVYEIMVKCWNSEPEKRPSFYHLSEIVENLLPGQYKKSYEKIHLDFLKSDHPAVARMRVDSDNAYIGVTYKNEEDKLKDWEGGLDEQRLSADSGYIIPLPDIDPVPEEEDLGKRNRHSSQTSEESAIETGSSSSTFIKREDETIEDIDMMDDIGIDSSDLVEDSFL
Test: Inhibitory activity against PDGF-Ra phosphorylation by PDGF-AA stimulation using G292
Assay type: cell-based
Details: Pharmacological Test Example 1; > means inhibition at indicated concentration not more than 50%, < and << not less than 50%; read-out: PDGF (E) IC50

Record excerpt, results attached:
[[record]]
compound = "COc1cc2nccc(Oc3cc(C)c(NC(=O)OCc4ccc(C(F)(F)F)cc4)cc3C)c2cc1OC"
observationtype = "IC50"
valueobserved = "< 0.01 µM"

[[record]]
compound = "COc1cc2nccc(Oc3cc(C)c(NC(=O)OC(C)c4cccc(N(C)C)c4)cc3C)c2cc1OC (stereo not drawn)"
observationtype = "IC50"
valueobserved = "> 0.1 µM"

[[record]]
compound = "CCCCOC(=O)Nc1ccc(Oc2ncnc3cc(OC)c(OC)cc23)cc1"
observationtype = "IC50"
valueobserved = "< 0.01 µM"


Ask: Consider the compound shown here: "COc1cc2nccc(Oc3ccc(NC(=O)OCCCSc4ccccn4)c(C)c3C)c2cc1OC" What is its recorded IC50?
Reply: < 0.01 µM

Source listed as patent US7135466B2.
